Target Or System: Human PDE4 (PDE4B2 truncated catalytic domain) (Homo sapiens)
Sequence (Q07343 212-659): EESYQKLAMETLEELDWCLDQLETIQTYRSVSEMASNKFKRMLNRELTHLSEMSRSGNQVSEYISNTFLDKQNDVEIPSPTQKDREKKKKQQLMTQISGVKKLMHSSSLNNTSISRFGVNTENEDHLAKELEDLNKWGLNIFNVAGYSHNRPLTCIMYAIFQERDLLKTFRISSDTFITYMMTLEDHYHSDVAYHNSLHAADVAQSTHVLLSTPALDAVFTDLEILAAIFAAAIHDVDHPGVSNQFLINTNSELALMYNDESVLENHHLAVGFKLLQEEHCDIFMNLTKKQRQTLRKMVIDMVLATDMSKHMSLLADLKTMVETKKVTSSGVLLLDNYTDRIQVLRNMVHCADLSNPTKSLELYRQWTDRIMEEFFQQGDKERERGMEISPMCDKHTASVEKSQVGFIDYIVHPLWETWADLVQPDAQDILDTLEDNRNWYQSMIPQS
Assay Procedure: Measurement of Phosphodiesterase 4 (PDE4) inhibition, zinc and barium precipitation method
Type: biochemical
Experimental Context: PDE4B2 truncated, 0.3 pM enzyme, 3H-cAMP substrate, 30° C. 6 minutes; read-out: PDE4 IC50
IC50 by entry:
Lab book: enter the figure in nM, no units written.

{"columns": ["Molecule", "Unit Tag", "IC50"],
 "data": [
  ["N#Cc1ccc(C(O)c2ccc3c(c2)COB3O)cc1 (stereo not drawn)", "nM", 1730]
]}

For N#Cc1ccc([S+]([O-])c2ccc3c(c2)COB3O)cc1 (stereo not drawn) the molecule record lists IC50 as 62

For N#Cc1ccc(Cc2ccc3c(c2)COB3O)cc1 the molecule record lists IC50 as 1770
